system: Human recombinant PDE10A2 (Homo sapiens (Human))
method.description: In vitro hPDE10a (human recombinant PDE10A2, scintillation proximity assay)
assay.context: human recombinant PDE10A2, 60 nM cAMP, 60 min at room temperature; read-out: hPDE10a2 IC50
Counter-ions that a name gives are not always drawn.
What pIC50 was measured for each of the following?
Numbers only, as −log10 of the molar value.

1. c1ccc2nc(OCc3cn4c(-c5ccc(N6CCOCC6)nc5)cnc(N5CCOCC5)c4n3)ccc2c1 [Cpd 131] :: 7.29
2. C(=C\c1ncc2ccccc2n1)/c1cn2c(-c3ccc(N4CCNCC4)nc3)cnc(N3CCOCC3)c2n1 [Cpd 104] :: 6.89
3. c1ccc2nc(SCc3cn4c(-c5ccc(-c6nnn[nH]6)nc5)cnc(N5CCOCC5)c4n3)ccc2c1 [Cpd 70] :: 8.70

For every item in the list below, what is its measured pIC50?
1. O=S(=O)(NCCO)c1ccc(-c2cnc(N3CCOCC3)c3nc(/C=C/c4ccc5ccccc5n4)cn23)cc1 [Cpd 73]
2. c1ccc2nc(OCc3cn4c(-c5ccc(-c6nnn[nH]6)nc5)cnc(N5CCOCC5)c4n3)ccc2c1 [Cpd 97]
3. CN(C)c1ccc(-c2cnc(N3CCOCC3)c3nc(COc4ccc5ccccc5n4)cn23)cn1 [Cpd 127]
4. c1ccc2nc(OCc3cn4c(-c5ccc(N6CCNCC6)nc5)cnc(C5CCOCC5)c4n3)ccc2c1 [compound 83, trifluoroacetic acid salt]

7.59
9.00
7.21
6.50

----------
Kindly state IC50 for each of the entries shown.
system: Rat recombinant PDE10a (rPDE10a) (Rattus norvegicus (Rat), UniProt Q9QYJ6)
Sequence (Q9QYJ6 whole entry): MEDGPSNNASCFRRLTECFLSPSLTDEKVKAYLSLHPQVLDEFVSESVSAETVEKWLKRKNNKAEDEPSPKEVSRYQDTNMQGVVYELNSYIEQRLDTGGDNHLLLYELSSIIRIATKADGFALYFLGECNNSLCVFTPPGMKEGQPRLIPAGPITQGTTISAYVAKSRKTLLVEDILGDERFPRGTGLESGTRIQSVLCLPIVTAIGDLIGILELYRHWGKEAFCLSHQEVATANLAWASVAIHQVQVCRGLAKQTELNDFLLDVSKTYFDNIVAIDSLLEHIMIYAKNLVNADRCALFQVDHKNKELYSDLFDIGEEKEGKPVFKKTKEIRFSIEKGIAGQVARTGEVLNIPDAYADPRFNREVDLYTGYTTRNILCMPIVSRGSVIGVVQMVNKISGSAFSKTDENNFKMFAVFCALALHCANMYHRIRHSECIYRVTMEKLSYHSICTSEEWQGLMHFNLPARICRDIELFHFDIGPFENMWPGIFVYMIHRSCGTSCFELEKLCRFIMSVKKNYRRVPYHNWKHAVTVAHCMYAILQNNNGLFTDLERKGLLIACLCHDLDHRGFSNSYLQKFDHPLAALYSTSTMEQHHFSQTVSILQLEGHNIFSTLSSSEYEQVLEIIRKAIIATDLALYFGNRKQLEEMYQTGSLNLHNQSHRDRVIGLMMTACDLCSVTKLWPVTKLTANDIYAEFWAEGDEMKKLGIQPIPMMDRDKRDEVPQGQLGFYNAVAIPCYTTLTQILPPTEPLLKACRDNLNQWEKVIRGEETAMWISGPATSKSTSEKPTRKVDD
method.description: In vitro assay PDE10a (rat recombinant PDE10a, SPA)
assay.context: 60 nM cAMP, 60 min at rt, read-out: rPDE10a2 IC50
Counter-ions that a name gives are not always drawn.
One number for each entry, in nM.

Example entries begin here.
1. CN1CCN(c2ncc(-c3cnc(N4CCOCC4)c4nc(COc5ccc6ccccc6n5)cn34)cn2)CC1 :: 8
2. COc1cc(-c2ncc(-c3ccc(N4CCNCC4)nc3)n3cc(/C=C/c4ccc5ccccc5n4)nc23)ccn1 :: 91

For each entry beneath this line, provide reported IC50.
1. CS(=O)(=O)NC(=O)c1ccc(-c2cnc(N3CCOCC3)c3nc(/C=C/c4ccc5ccccc5n4)cn23)cc1
2. c1ccc2nc(OCc3cn4c(-c5ccc(C6CCNCC6)nc5)cnc(N5CCOCC5)c4n3)ccc2c1 [Cpd 106, trifluoroacetic acid salt]
3. O=C(O)CCNc1ccc(-c2cnc(N3CCOCC3)c3nc(/C=C/c4ccc5ccccc5n4)cn23)cc1 [Cpd 22, trifluoroacetic acid salt]
4. c1cnc(OCc2cn3c(-c4ccc(N5CCNCC5)nc4)cnc(N4CCOCC4)c3n2)nc1 [Cpd 116, trifluoroacetic acid salt]
5. O=C(O)CN1CCC(c2cnc(N3CCOCC3)c3nc(COc4ccc5ccccc5n4)cn23)CC1 [Cpd 110, trifluoroacetic acid salt]

16
15
9
3630
288

// input: 8 compounds below; output: IC50 for each
1. CC(=O)NS(=O)(=O)c1ccc(-c2cnc(N3CCOCC3)c3nc(COc4ccc5ccccc5n4)cn23)cc1
2. c1ccc2nc(OCc3cn4c(-c5ccc(N6CCNCC6)nc5)cnc(N5CCOCC5)c4n3)ccc2c1
3. O=C(O)Cc1ccc(-c2cnc(N3CCOCC3)c3nc(COc4ccc5ccccc5n4)cn23)cn1
4. O=C(O)CCNc1ccc(-c2cnc(N3CCOCC3)c3nc(CCc4ccc5ccccc5n4)cn23)cc1 [Cpd 23, trifluoroacetic acid salt]
5. O=C(O)c1ccc(-c2cnc(N3CCOCC3)c3nc(C#Cc4ccccn4)cn23)cc1
6. O=C(Nc1ccc(-c2cnc(N3CCOCC3)c3nc(/C=C/c4ccc5ccccc5n4)cn23)cc1)N(CCO)CCO
7. C(=C\c1cn2c(-c3ccc(N4CCNCC4)nc3)cnc(N3CCOCC3)c2n1)/c1ccc2ccccc2n1 [Cpd 105, trifluoroacetic acid salt]
8. O=C(O)CNC(=O)c1ccc(-c2cnc(N3CCOCC3)c3nc(/C=C/c4ccc5ccccc5n4)cn23)cc1

1: 12; 2: 13; 3: 20; 4: 6; 5: 16; 6: 63; 7: 22; 8: 17

# batch size: 2; output IC50 per entry
1. O=C1NC(=O)C(c2ccc(-c3cnc(N4CCOCC4)c4nc(/C=C/c5ccc6ccccc6n5)cn34)cc2)N1 (stereo not drawn) [Cpd 57, 2,2,2-trifluoroacetate]
2. O=S1(=O)CCN(c2ncc(-c3ccc(N4CCNCC4)nc3)n3cc(COc4ccc5ccccc5n4)nc23)CC1 [Cpd 117, trifluoroacetic acid salt]

[48, 32]

----------
Assignment: determine reported IC50 for the given compounds.
system: Rat recombinant PDE10a (rPDE10a) (Rattus norvegicus (Rat))
method.description: In vitro assay PDE10a (rat recombinant PDE10a, SPA)
assay.context: 60 nM cAMP, 60 min at rt, read-out: rPDE10a2 IC50
Where a name gives a salt, the structure may show the parent alone.
Answers are plain numbers, in nM.

Illustrative cases are given below, each with its answer.
1. c1ccc2nc(N3CC(c4cn5c(-c6ccc(N7CCNCC7)nc6)cnc(N6CCOCC6)c5n4)C3)ccc2c1 [Cpd 99] :: 204
2. c1ccc2nc(SCc3cn4c(-c5ccc(N6CCNCC6)nc5)cnc(N5CCOCC5)c4n3)ccc2c1 [Cpd 98, trifluoroacetic acid salt] :: 52
3. Cc1cc(S(=O)(=O)NC(C)C)ccc1-c1cnc(N2CCOCC2)c2nc(/C=C/c3ccc4ccccc4n3)cn12 [Cpd 49] :: 98
4. CN1CCN(c2ccc(-c3cnc(N4CCOCC4)c4nc(COc5ccc6ccccc6n5)cn34)cn2)CC1 [Cpd 130] :: 16

List the reported IC50 of each compound below.
1. O=c1[nH]c2ccc(-c3cnc(N4CCOCC4)c4nc(CCc5ccc6ccccc6n5)cn34)cc2o1 [Cpd 64, trifluoroacetic acid salt]
2. COCOc1c(C)cc(-c2cnc(N3CCOCC3)c3nc(/C=C/c4ccc5ccccc5n4)cn23)cc1C [Cpd 41]

22
21

----------
Could you please report measured log10(concentration at 2 h) for the items listed next?
method.description: PDE10a-perfused brain permeability study (plasma and brain concentrations)
assay.context: male, Sprague-Dawley, rat, plasma
Structures can show the parent of a compound that is named as a salt.
In our notation, the value equals log10 of concentration at 2 h in ng/mL.

Example results:
1. CC(=O)NS(=O)(=O)c1ccc(-c2cnc(N3CCOCC3)c3nc(/C=C/c4ccc5ccccc5n4)cn23)cc1 [Cpd 69, trifluoroacetic acid salt] :: 1.87
2. CC(=O)NS(=O)(=O)c1ccc(-c2cnc(N3CCOCC3)c3nc(CCc4ccc5ccccc5n4)cn23)cc1 [Cpd 63] :: 0.30
3. Cc1ccc(-c2cnc(N3CCOCC3)c3nc(COc4ccc5ccccc5n4)cn23)cn1 [Cpd 128] :: 1.21
4. O=c1[nH]c(-c2ccc(-c3cnc(N4CCOCC4)c4nc(/C=C/c5ccc6ccccc6n5)cn34)cn2)no1 [Cpd 95] :: 2.05
5. c1ccc2nc(OCc3cn4c(-c5ccc(Sc6cnn[nH]6)nc5)cnc(N5CCOCC5)c4n3)ccc2c1 [Cpd 92] :: 2.13

Report log10(concentration at 2 h) for every entry below.
1. c1ccc2nc(OCc3cn4c(-c5ccc(-c6nnn[nH]6)nc5)cnc(N5CCOCC5)c4n3)ccc2c1 [Cpd 97]
2. O=C(O)C1CCN(c2ccc(-c3cnc(N4CCOCC4)c4nc(/C=C/c5ccc6ccccc6n5)cn34)cc2)CC1 [Cpd 14, trifluoroacetic acid salt]

1.92
2.70

----------
system: Rat recombinant PDE10a (rPDE10a) (Rattus norvegicus (Rat))
method.description: In vitro assay PDE10a (rat recombinant PDE10a, SPA)
assay.context: 60 nM cAMP, 60 min at rt, read-out: rPDE10a2 IC50
Counter-ions that a name gives are not always drawn.
measurement.kind: IC50 (nM)
One number for each entry, in nM.

Previously resolved entries follow.
1) CN1C(=O)NS(=O)(=O)c2cc(-c3cnc(N4CCOCC4)c4nc(/C=C/c5ccc6ccccc6n5)cn34)ccc21 [Cpd 24, trifluoroacetic acid salt] :: 5
2) O=C(O)CNc1ccc(-c2cnc(N3CCOCC3)c3nc(/C=C/c4ccc5ccccc5n4)cn23)cc1 [Cpd 29, trifluoroacetic acid salt] :: 15

// below: IC50 requested for another molecule
Form field: reported IC50 of `O=S(=O)(NCCO)c1ccc(-c2cnc(N3CCOCC3)c3nc(/C=C/c4ccc5ccccc5n4)cn23)cc1`
40

----------
system: Human recombinant PDE10A2 (Homo sapiens (Human), UniProt Q9Y233)
Sequence (Q9Y233 267-1055): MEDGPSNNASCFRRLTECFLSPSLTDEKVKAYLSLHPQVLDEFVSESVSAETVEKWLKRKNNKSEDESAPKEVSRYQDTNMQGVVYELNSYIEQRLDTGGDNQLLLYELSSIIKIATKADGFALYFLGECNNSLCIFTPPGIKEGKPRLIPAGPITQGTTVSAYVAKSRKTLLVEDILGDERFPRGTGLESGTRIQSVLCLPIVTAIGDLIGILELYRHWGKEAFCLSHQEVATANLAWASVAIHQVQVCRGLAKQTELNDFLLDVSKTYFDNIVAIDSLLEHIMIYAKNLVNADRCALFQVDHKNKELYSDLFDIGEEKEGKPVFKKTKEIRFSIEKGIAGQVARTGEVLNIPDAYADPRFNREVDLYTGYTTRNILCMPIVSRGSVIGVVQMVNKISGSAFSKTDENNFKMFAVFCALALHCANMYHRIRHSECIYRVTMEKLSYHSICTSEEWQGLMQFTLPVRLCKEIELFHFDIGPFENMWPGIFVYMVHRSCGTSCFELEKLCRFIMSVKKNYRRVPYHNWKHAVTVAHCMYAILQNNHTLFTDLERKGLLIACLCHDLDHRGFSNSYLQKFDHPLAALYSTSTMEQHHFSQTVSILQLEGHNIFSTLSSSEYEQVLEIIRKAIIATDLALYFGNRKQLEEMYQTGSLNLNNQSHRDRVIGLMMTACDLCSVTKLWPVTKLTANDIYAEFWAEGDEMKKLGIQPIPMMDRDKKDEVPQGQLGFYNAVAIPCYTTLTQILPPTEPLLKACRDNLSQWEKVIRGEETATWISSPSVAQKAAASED
method.description: In vitro hPDE10a (human recombinant PDE10A2, scintillation proximity assay)
assay.context: human recombinant PDE10A2, 60 nM cAMP, 60 min at room temperature; read-out: hPDE10a2 IC50
Experimental: Human recombinant PDE10A2 was expressed in Sf9 cells, using a recombinant baculovirus construct containing the full length sequence containing a 6×His sequence following the start Met to allow metal affinity purification of the recombinant protein. […] The affinity of the compounds of Formula (I) for phophodiesterases (PDE) was measured by a scintillation proximity assay (SPA). […] The amount of bound tritiated product ([^3H]-AMP) is measured by liquid scintillation counting. […]
Structures can show the parent of a compound that is named as a salt.
Could you please report measured pIC50 for the items listed next?
Give bare numbers, as −log10 of the molar value.

Check out these entries, answers already filled in.
1) O=c1ncn(-c2ccc(-c3cnc(N4CCOCC4)c4nc(/C=C/c5ccc6ccccc6n5)cn34)cc2)[nH]1 :: 7.85
2) CN1CCN(c2ncc(-c3cnc(N4CCOCC4)c4nc(COc5ccc6ccccc6n5)cn34)cn2)CC1 :: 7.72
3) O=C(O)CNc1ccc(-c2cnc(N3CCOCC3)c3nc(/C=C/c4ccc5ccccc5n4)cn23)cn1 [Cpd 66, trifluoroacetic acid salt] :: 8.70

Give pIC50 for all molecules that follow.
1. CC(C)[C@H](Nc1ccc(-c2cnc(N3CCOCC3)c3nc(/C=C/c4ccc5ccccc5n4)cn23)cc1)C(=O)O [Cpd 15, trifluoroacetic acid salt]
2. O=C(O)c1ccc(-c2cnc(N3CCOCC3)c3nc(C#Cc4nc5ccccc5s4)cn23)cc1
3. COCCOCCOc1ccc(-c2cnc(N3CCOCC3)c3nc(/C=C/c4ccc5ccccc5n4)cn23)cc1
4. CS(=O)(=O)Nc1ccc(-c2cnc(N3CCOCC3)c3nc(CCc4ccc5ccccc5n4)cn23)cn1

7.52
8.15
7.08
9.00
